# TARGET UNDER TEST: Glycogen phosphorylase, muscle form (Homo sapiens, UniProt P11217)
# Sequence (P11217 whole entry): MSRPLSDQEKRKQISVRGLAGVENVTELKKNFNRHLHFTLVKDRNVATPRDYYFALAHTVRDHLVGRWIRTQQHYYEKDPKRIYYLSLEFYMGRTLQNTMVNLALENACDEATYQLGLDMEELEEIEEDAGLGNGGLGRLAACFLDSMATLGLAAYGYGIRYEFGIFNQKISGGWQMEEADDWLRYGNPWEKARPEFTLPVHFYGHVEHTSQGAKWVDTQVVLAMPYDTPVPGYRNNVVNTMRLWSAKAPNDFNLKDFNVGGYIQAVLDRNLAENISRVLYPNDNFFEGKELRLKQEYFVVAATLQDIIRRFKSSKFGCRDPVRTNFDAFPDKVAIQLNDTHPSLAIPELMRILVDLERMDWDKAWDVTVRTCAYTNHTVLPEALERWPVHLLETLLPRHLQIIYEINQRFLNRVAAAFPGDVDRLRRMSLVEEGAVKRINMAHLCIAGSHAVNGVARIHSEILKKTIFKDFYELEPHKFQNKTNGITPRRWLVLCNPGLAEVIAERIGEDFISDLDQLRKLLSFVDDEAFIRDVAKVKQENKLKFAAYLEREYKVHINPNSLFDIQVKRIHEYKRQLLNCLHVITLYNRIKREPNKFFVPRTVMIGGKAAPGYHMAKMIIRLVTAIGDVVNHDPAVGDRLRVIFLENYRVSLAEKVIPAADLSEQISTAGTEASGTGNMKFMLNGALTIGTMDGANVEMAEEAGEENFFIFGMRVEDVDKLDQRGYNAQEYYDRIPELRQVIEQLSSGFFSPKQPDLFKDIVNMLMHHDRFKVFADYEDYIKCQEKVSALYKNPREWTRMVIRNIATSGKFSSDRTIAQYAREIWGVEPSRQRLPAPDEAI
# ASSAY DETAILS: Inhibitory concentration against recombinant human muscle glycogen phosphorylase a (HMGPa)
In this section we review reported IC50 values for a set of molecules.
Record the value in nM, omitting the unit from your answer.

molecule="CCc1ccc2[nH]c(C(=O)NC3Cc4ccccc4N(C)C3=O)cc2c1 (stereo unspecified)" experimental_readout=IC50 value_unit=nM result_value=850

Input: Tell me its IC50 given CN1C(=O)[C@H](NC(=O)c2cc3cc(Cl)ccc3[nH]2)Cc2ccccc21 as the entry.
Output: 58

Input: Please look at this molecule and report its IC50: O=C(NC1CCc2ccccc2NC1=O)c1ccc(Cl)c(Cl)c1 (racemic)
Output: 21700

Input: # return recorded IC50 for input COc1ccc2[nH]c(C(=O)NC3Cc4ccccc4N(C)C3=O)cc2c1 (stereo unspecified)
Output: 1700

Input: In one line, give reported IC50 of the entry CN1C(=O)C(NC(=O)c2cc3cccc([N+](=O)[O-])c3[nH]2)Cc2ccccc21 (stereo unspecified) .
Output: 120

Input: Look up and report measured IC50 for this entry: CN1C(=O)C(NC(=O)c2cc3cc(C(F)(F)F)ccc3[nH]2)Cc2ccccc21 (stereo unspecified)
Output: 550

Input: Respond only with IC50 recorded for CN1C(=O)C(NC(=O)c2cc3cc(Br)ccc3[nH]2)Cc2ccccc21 (stereo unspecified)
Output: 73

Input: For the molecule CN1C(=O)C(NC(=O)c2cc3cc(C#N)ccc3[nH]2)Cc2ccccc21 (stereo unspecified) , give its measured IC50 value.
Output: 110

Input: Please report IC50 for the following molecule: CN1C(=O)C(NC(=O)c2cc3ccc(Cl)cc3[nH]2)Cc2ccccc21 (stereo unspecified)
Output: 69

Input: Input CN1C(=O)C(NC(=O)c2cc3cc(Cl)ccc3[nH]2)CCc2ccccc21 (stereo unspecified) , output reported IC50.
Output: 105

Input: Give IC50 for CN1C(=O)C(NC(=O)c2cc3ccccc3[nH]2)Cc2ccccc21 (stereo unspecified)
Output: 56

Input: # return recorded IC50 for entry O=C(NC1Cc2ccccc2NC1=O)c1ccc(Cl)c(Cl)c1 (stereo unspecified)
Output: 2310

Input: Annotate the molecule CN1C(=O)C(NC(=O)c2cc3c(Cl)cccc3[nH]2)Cc2ccccc21 (stereo unspecified) with its measured IC50.
Output: 2100

Input: Provide one value: measured IC50 of CN1C(=O)C(NC(=O)c2cc3cc(F)ccc3[nH]2)Cc2ccccc21 (stereo unspecified)
Output: 89

Input: Provide only the value of recorded IC50 for CN1C(=O)C(NC(=O)c2cc3cc(Cl)ccc3[nH]2)Cc2ccccc21 (racemic)
Output: 32

Input: In one line, give reported IC50 of the entry CN1C(=O)C(NC(=O)c2cc3cc(Cl)cc(F)c3[nH]2)Cc2ccccc21 (stereo unspecified) .
Output: 55

Input: Answer with the recorded IC50 of O=C(N[C@H]1Cc2ccccc2NC1=O)c1cc2cc(Cl)ccc2[nH]1 only.
Output: 39

###

# TARGET UNDER TEST: Glycogen phosphorylase, muscle form (Homo sapiens)
# ASSAY DETAILS: Inhibitory concentration against recombinant human muscle glycogen phosphorylase a (HMGPa)
// returns not met unless IC50 is strictly below 2000 nM, in which case met

Completed entries (count: 5):
compound="O=C(NC1Cc2ccccc2NC1=O)c1cc2cc(Cl)ccc2[nH]1 (racemic)" class_assignment=met
compound="Cc1ccc2[nH]c(C(=O)NC3Cc4ccccc4N(C)C3=O)cc2c1 (configuration not stated)" class_assignment=met
compound="O=C(NC1CCc2ccccc2NC1=O)c1cc2ccccc2[nH]1 (configuration not stated)" class_assignment="not met"
compound="CN1C(=O)C(NC(=O)c2cc3cccc(N)c3[nH]2)Cc2ccccc21 (configuration not stated)" class_assignment="not met"
compound=CN1C(=O)[C@@H](NC(=O)c2cc3cc(Cl)ccc3[nH]2)Cc2ccccc21 class_assignment=met

Input: Record COC(=O)c1ccc2[nH]c(C(=O)NC3Cc4ccccc4N(C)C3=O)cc2c1 (configuration not stated) : is its IC50 strictly below 2000 nM?
Output: not met

Input: I wonder whether O=C(N[C@@H]1Cc2ccccc2NC1=O)c1cc2cc(Cl)ccc2[nH]1 has IC50 below 2000 nM. Can you tell?
Output: met

###

# Species on record: Rattus norvegicus
# ASSAY DETAILS: Inhibition of glucose production in glucagon-stimulated glycogenolysis in primary rat hepatocytes
# Type: functional
# RECORDED CONDITIONS: Hepatocyte
EXPERIMENTAL READOUT: EC50
Field: value (include unit after the number)

compound="Cc1n[nH]c(CN2C(=O)C(NC(=O)c3cc4cc(Cl)ccc4[nH]3)Cc3ccccc32)n1 (racemic)" result_value="1.2 µM"
compound=O=C(N[C@H]1Cc2ccccc2N(Cc2ccccn2)C1=O)c1cc2cc(Cl)ccc2[nH]1 result_value="11.6 µM"
compound=O=C(N[C@@H]1Cc2ccccc2NC1=O)c1cc2cc(Cl)ccc2[nH]1 result_value="1.8 µM"
compound=O=C(N[C@@H]1Cc2ccccc2N(Cc2ccccn2)C1=O)c1cc2cc(Cl)ccc2[nH]1 result_value="14.5 µM"
compound=CN1C(=O)[C@H](NC(=O)c2cc3cc(Cl)ccc3[nH]2)Cc2ccccc21 result_value="13.2 µM"
compound="O=C(NC1Cc2ccccc2N(Cc2ccccn2)C1=O)c1cc2cc(Cl)ccc2[nH]1 (racemic)" result_value="20.7 µM"
compound="O=C(NC1Cc2ccccc2N(Cc2cccnc2)C1=O)c1cc2cc(Cl)ccc2[nH]1 (racemic)" result_value="16.6 µM"
compound=CN1C(=O)[C@@H](NC(=O)c2cc3cc(Cl)ccc3[nH]2)Cc2ccccc21 result_value="8.4 µM"

Input: Specify EC50 for O=C(N[C@H]1Cc2ccccc2NC1=O)c1cc2cc(Cl)ccc2[nH]1 and stop.
Output: 7.8 µM

Input: Look up EC50 of O=C(NC1Cc2ccccc2N(Cc2nnc(-c3ncc[nH]3)[nH]2)C1=O)c1cc2cc(Cl)ccc2[nH]1 (racemic) and report it.
Output: 3.7 µM

###

# TARGET UNDER TEST: Glycogen phosphorylase, liver form (Homo sapiens)
# Sequence (P06737 whole entry): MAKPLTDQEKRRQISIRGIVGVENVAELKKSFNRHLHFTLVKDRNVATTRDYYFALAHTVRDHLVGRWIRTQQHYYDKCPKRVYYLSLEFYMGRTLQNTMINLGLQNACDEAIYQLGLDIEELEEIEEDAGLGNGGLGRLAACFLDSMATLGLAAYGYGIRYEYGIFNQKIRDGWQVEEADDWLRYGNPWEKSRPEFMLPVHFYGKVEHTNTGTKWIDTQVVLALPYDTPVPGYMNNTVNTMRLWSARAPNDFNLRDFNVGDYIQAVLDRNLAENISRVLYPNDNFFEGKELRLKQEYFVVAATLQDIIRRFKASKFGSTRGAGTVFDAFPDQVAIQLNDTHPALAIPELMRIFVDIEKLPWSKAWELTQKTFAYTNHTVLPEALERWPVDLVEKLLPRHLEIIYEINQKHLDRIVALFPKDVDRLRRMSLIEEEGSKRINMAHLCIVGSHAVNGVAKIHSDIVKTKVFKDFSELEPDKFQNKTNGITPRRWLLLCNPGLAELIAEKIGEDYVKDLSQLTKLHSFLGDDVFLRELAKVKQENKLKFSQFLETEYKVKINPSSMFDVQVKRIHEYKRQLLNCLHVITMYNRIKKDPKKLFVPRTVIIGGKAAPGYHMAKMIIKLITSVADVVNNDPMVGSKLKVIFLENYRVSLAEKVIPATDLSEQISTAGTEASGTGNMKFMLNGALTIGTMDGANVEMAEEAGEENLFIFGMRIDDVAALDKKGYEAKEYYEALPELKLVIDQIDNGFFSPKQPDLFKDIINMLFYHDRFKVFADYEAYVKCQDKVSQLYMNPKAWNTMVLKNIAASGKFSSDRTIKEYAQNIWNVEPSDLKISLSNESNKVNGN
# ASSAY DETAILS: Inhibitory concentration against recombinant human liver glycogen phosphorylase a (HLGPa)
IC50 for assorted compounds

In the examples that follow, each entry is paired with its recorded IC50.
compound=CN1C(=O)[C@@H](NC(=O)c2cc3cc(Cl)ccc3[nH]2)Cc2ccccc21 result_value="57 nM"
compound="CCc1ccc2[nH]c(C(=O)NC3Cc4ccccc4N(C)C3=O)cc2c1 (stereo not given)" result_value="2500 nM"

Read the next record carefully.
Input: Name the recorded IC50 of the compound listed here: CN1C(=O)C(NC(=O)c2cc3cccc([N+](=O)[O-])c3[nH]2)Cc2ccccc21 (stereo not given)
Output: 300 nM

All figures here come from ChEMBL document CHEMBL1136486.
